- Subject Of Test: JAK2 (Homo sapiens, UniProt O60674)
- Construct: purchased Carna Biosciences
- Sequence (O60674 whole entry): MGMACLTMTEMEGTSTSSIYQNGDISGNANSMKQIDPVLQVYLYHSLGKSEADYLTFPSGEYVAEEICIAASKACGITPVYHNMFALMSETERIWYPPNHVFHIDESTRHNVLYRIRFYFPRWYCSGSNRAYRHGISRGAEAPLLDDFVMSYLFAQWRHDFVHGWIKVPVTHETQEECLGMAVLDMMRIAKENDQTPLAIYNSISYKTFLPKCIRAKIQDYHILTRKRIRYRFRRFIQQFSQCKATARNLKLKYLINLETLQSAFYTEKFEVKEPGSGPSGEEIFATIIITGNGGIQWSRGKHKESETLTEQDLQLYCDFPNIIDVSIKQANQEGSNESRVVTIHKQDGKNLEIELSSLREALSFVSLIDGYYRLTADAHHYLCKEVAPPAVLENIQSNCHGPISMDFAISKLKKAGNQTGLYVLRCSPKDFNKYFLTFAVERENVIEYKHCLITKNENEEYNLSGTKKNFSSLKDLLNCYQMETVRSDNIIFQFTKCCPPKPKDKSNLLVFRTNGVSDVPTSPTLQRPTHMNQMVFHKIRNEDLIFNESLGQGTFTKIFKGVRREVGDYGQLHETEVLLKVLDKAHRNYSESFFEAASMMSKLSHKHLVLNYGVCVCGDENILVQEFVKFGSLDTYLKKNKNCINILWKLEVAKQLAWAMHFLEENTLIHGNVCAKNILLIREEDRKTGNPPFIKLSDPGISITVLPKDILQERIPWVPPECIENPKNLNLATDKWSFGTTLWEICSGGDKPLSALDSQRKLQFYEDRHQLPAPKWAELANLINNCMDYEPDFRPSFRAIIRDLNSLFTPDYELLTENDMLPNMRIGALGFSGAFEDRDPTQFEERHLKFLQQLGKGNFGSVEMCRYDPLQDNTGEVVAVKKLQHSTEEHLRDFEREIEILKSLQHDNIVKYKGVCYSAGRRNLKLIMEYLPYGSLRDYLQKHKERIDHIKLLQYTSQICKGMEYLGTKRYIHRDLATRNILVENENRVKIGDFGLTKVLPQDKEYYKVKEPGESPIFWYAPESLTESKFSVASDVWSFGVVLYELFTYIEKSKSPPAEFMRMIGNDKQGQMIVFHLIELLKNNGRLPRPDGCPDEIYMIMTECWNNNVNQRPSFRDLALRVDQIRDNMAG
- Test Protocol: JAK2 microfluidic kinase assay (Caliper EZ Reader II, FAM labeled peptide substrate)
- Assay type: biochemical
- Assay Setup: IC50 JAK2 ([…]) (1 mM ATP), 1 mM ATP
Experimental Readout: IC50 (nM)

Lookup: GET /values?readout=IC50&item= `CC[C@@H](C#N)NC(=O)c1ccc(-c2nc(Nc3cnn(C4CCN(C)CC4)c3)ncc2Cl)cc1`
Found: 0.61

Lookup: GET /values?readout=IC50&item= `Cc1cnc(Nc2cnn(C)c2)nc1-c1ccc(C(=O)NCC#N)cc1`
Found: 46.5

Lookup: GET /values?readout=IC50&item= `CO[C@H]1CC[C@H](n2cc(Nc3ncc(C)c(-c4ccc(C(=O)N[C@@H](C)C#N)cc4)n3)cn2)CC1`
Found: 0.35

I. Cc1cnc(Nc2cnn(C3CCNCC3)c2)nc1-c1ccc(C(=O)NCC#N)cc1
II. CC[C@@H](C#N)NC(=O)c1ccc(-c2nc(Nc3cnn(CCC#N)c3)ncc2C)cc1
III. Cc1cnc(Nc2cnn([C@@H]3C[C@@H](C)N[C@@H](C)C3)c2)nc1-c1ccc(C(=O)N[C@@H](C)C#N)cc1
IV. CC[C@@H](C#N)NC(=O)c1ccc(-c2nc(Nc3cnn(CCO)c3)ncc2C)cc1
V. C[C@@H](C#N)NC(=O)c1ccc(-c2nc(Nc3cnn(C4CC4)c3)ncc2Cl)cc1
Lookup: Would you mind ranking these compounds by ascending IC50? Thanks in advance for listing the labels in the requested order.
Found: I, III, V, IV, II

====

- Test Protocol: Rat colon pharmacokinetic study (plasma, colon, colon + fecal content)
- Type: in vivo
- Assay Setup: Sprague-Dawley (SD), rat; SD rats, 10 mg/kg oral gavage, plasma
Experimental Readout: AUC (ng·h/mL)

I. Cc1cnc(Nc2cnn(CC#N)c2)nc1-c1ccc(C(=O)NCC#N)cc1
II. C[C@@H](C#N)NC(=O)c1ccc(-c2nc(Nc3cnn(C4CCN(C)CC4)c3)ncc2Cl)cc1
III. CC[C@@H](C#N)NC(=O)c1ccc(-c2nc(Nc3cnn(C4CCN(C)CC4)c3)ncc2C)cc1
IV. Cc1cnc(Nc2cnn(C3CCN(C(=O)CO)CC3)c2)nc1-c1ccc(C(=O)N[C@@H](C)C#N)cc1
Lookup: Sort the listed molecules above so the one with the largest AUC comes first and the smallest comes last. Thanks in advance for listing the labels in the requested order.
Found: I, IV, III, II

====

- Subject Of Test: JAK2 (Homo sapiens)
- Construct: purchased Carna Biosciences
- Test Protocol: JAK2 microfluidic kinase assay (Caliper EZ Reader II, FAM labeled peptide substrate)
- Format: biochemical
- Assay Setup: IC50 JAK2 ([…]) (1 mM ATP), 1 mM ATP
Experimental Readout: IC50 (nM)

Lookup: GET /values?readout=IC50&item= `Cc1cnc(Nc2cnn(CC#N)c2)nc1-c1ccc(C(=O)NCC#N)cc1`
Found: 43

Lookup: GET /values?readout=IC50&item= `Cc1cnc(Nc2cnn(CC(F)(F)F)c2)nc1-c1ccc(C(=O)NCC#N)cc1`
Found: 82.2

Lookup: GET /values?readout=IC50&item= `CC[C@@H](C#N)NC(=O)c1ccc(-c2nc(Nc3cnn(C)c3)ncc2C)cc1`
Found: 42.5

I. Cc1cnc(Nc2cnn(C3CCNCC3)c2)nc1-c1ccc(C(=O)N[C@H](C#N)C2CC2)cc1
II. Cc1cnc(Nc2cnn(C3CCN(C(=O)C4CC4)CC3)c2)nc1-c1ccc(C(=O)N[C@@H](C)C#N)nc1
Lookup: // select label with min value of measured IC50 from [ I , II ] State the label of the item chosen.
Found: I
(I: 0.79 nM, II: 32.4 nM)

FYI, the data here is from patent US12595253B2.
